Source: patent US9499550B2

Test system: HCV genotype 1b (Con1) replicon in HUH-7 cells
Assay: HCV replicon luciferase reporter assay, genotype 1b
Format: cell-based
Conditions: Hepatitis C virus, Huh-7, 72 h, HCV genotype 1b replicon luciferase, 3 days incubation, read-out: LE_1b (EC50, range)
Experimental Endpoint: EC50

State the recorded EC50 for this entry: COc1cc2cc(-c3ccc(OC(C)C)cc3)nc(O[C@@H]3C[C@H]4C(=O)N[C@]5(C(=O)NS(=O)(=O)C6(C)CC6)C[C@H]5/C=C\CC[C@H](C)C[C@@H](C)[C@H](NC(=O)O[C@@H]5C[C@@H]6C[C@@H]6C5)C(=O)N4C3)c2cc1F [Compound 3191]
< 5.46 nM

Tell me the measured EC50 of C[C@H]1CC/C=C\[C@@H]2C[C@@]2(C(=O)NS(=O)(=O)C2CC2)NC(=O)[C@@H]2C[C@@H](Oc3nccc4c5c(ccc34)N(C)CCO5)CN2C(=O)[C@@H](NC(=O)O[C@@H]2C[C@@H]3C[C@@H]3C2)[C@H](C)C1 [Compound 5291] , please.
< 5.46 nM

EC50 lookup needed for CCOc1cc2ccnc(O[C@@H]3C[C@H]4C(=O)N[C@]5(C(=O)NS(=O)(=O)C6(C)CC6)C[C@H]5/C=C\CC[C@@H](C)C[C@@H](C)[C@H](NC(=O)OC(C)(C)C(C)(F)F)C(=O)N4C3)c2cc1F [Compound 5397] , thanks.
0.51 to 1 nM
